Taken from PubChem BioAssay (NCI).

# Tested on: HS 578T breast
# test-protocol: NCI tumour cell line growth inhibition, 48 h
# TGI annotations
readout-type: TGI

molecule	recorded-result
CC1(C)C(=O)/C(=C\c2ccco2)C[C@]2(C)[C@H]3CC=C4[C@@H]5C[C@](C)(C(=O)O)CC[C@]5(C)CC[C@@]4(C)[C@]3(C)CC[C@@H]12	> 100 µM
CC(=O)Nc1ccc(Nc2nc(=O)[nH]c(=O)[nH]2)cc1	> 100 µM
Cn1c(N/N=C/c2ccc(Cl)cc2)nc(-c2ccc(Cl)cc2)c(C#N)c1=O	86.4 µM
CC1(C)C2CCC1C(=O)C(C=O)C2 (centres undefined)	> 100 µM
COc1nc2c(c(=O)n1C)N[C@@H]1[C@@H](O)[C@H](O)CO[C@@H]1N2	> 100 µM
COC1CCC(OC2CC(C3(C)CCC4(CC(O)C(C)C(C(C)/C=C(\C)C(=O)C(C)CC(C)C(=O)O)O4)O3)OC3(OC(C4OC(O)(CO)C(C)CC4C)CC3C)C2C)OC1C (centres undefined)	1.15 µM
OCC1OC(N2C=C(c3nc4ccccc4s3)C3C=CC=CC32)C(O)C1O (centres undefined)	> 50 µM
Clc1ccc(-c2nc(-c3ccc(Cl)cc3)[s+]s2)cc1	> 100 µM
COc1ccc(N=C/C=C/Nc2ccc(OC)cc2)cc1	38.8 µM

----------
Measurement record for HCC-2998 colon; quantity recorded: GI50.
readout-type: GI50

>>> print(df.to_string())
                                    compound  recorded_result
 0  O=c1c(OC/C(=N/O)c2ccccc2)c(-c2ccccc2)oc2ccccc12          9.64 µM
 1  Cc1ccc(N2C(=O)C(Cl)=C(Nc3cccc(O)c3)C2=O)cc1Cl          14.5 µM
 2  CCCCS(=N)(=O)CC[C@H](N)C(=O)O (stereo partly specified)       > 10000 µM
 3          O=Nc1c2cccnc2n2nnc3ccc(Cl)cc3c12          1.72 µM
 4  CC1(C)C(=O)/C(=C\c2ccco2)C[C@]2(C)[C@H]3CC=C4[C@@H]5C[C@](C)(C(=O)O)CC[C@]5(C)CC[C@@]4(C)[C@]3(C)CC[C@@H]12            11 µM
 5  O=C(N/N=C/c1ccc(F)cc1)c1[nH]c2ccc(I)cc2c1-c1ccccc1         0.888 µM
 6  Cc1ccc(S(=O)(=O)NCCN2c3nc4ccccc4cc3Sc3cc4ccccc4nc32)cc1         > 100 µM
 7  CC/C=C\C[C@H](O)C/C=C1/C(=O)C=C[C@@H]1C/C=C\CCCC(N)=O          1.98 µM
 8  COc1ccc(-c2cn3ccnc3c(-c3ccc4ncn(C5CCCCC5)c4c3)n2)cc1          2.92 µM
 9  CCN(CC)CC(C)Nc1ccc(C)c2sc3ccccc3c(=O)c12 (stereo unspecified)          3.19 µM
10  COc1cccc2c(=O)c3c(sc12)c(NCCCN)nc1ccccc13          1.72 µM

----------
# Tested on: SN12C renal
# test-protocol: NCI tumour cell line growth inhibition, 48 h
readout-type: GI50

compound	recorded-result
CCCCS(=N)(=O)CC[C@H](N)C(=O)O (some centres undefined)	> 10000 µM
CC(O)C(NC(=O)C(CS)NC(=O)C(CO)NC(=O)C(CCCCN)NC(=O)C(Cc1c[nH]c2ccccc12)NC(=O)C(Cc1ccc(O)cc1)NC(=O)C(CS)NC(=O)C(N)Cc1ccccc1)C(N)=O (centres undefined)	28.6 µM
N#CC1C(N)=NNC1c1ccc(-c2ccc(-c3nc4ccccc4o3)cc2)o1 (centres undefined)	45 µM
CCc1ccc(C2=C(O)C(=O)C(c3ccc(CC)cc3)=C(O)C2=O)cc1	2.28 µM
CCCCc1cc(O)ccc1O	18.7 µM
CCOC(=O)c1sc2c(C(=O)OCC)n3ccccc3c2c1N	73.5 µM
CCC(=O)N1C/C(=C/c2ccc(OC)cc2)C(=O)/C(=C/c2ccc(OC)cc2)C1	1.78 µM
O=C(Nc1ccc(Br)cc1)c1cc(Br)cc(Br)c1O	2.77 µM
O=C(/C=C/c1ccc([N+](=O)[O-])o1)NNC(=O)c1cc2ccccc2cc1O	1.49 µM

----------
# Test system: SNB-19 CNS
# test-protocol: NCI tumour cell line growth inhibition, 48 h
readout-type: TGI

In [3]: df
Out[3]:
                                    compound  recorded_result
 0  CC(=O)Nc1ccc(Nc2nc(=O)[nH]c(=O)[nH]2)cc1         > 100 µM
 1  NC(=O)c1ccccc1NC(=O)C(=O)C(c1cnc2ccc([N+](=O)[O-])cc2n1)[N+](=O)[O-] (stereo not given)         > 100 µM
 2  CCCN(CCCCC(NC(C)=O)C(=O)NCc1ccccc1)C(=O)NC (stereo not given)         > 100 µM
 3  Cc1nn(-c2ccccc2)c(C)c1/C=N/NC(=O)c1sc(=S)n(-c2ccccc2)c1N         > 100 µM
 4  CC1CC[C@]2(C(=O)O)CCC3(C)C(=C2[C@H]1C)C=CC1[C@@]2(C)CC[C@H](O)C(C)(C)C2CC[C@]13C (stereo not given in full)         > 100 µM
 5  CCN(CC)CC(C)Nc1ccc(C)c2sc3ccccc3c(=O)c12 (stereo not given)          19.5 µM
 6  OC1CN=C2c3ccccc3C(O)(c3ccc(Cl)cc3)N2C1 (stereo not given)         > 100 µM
 7             ClCCn1cnc2c(SCc3ccccc3)ncnc21         > 100 µM
 8  O=C1CC(O)c2c(Cl)sc(Cl)c21 (stereo not given)          40.2 µM
 9  O=C1Cc2c(-c3ccccc3)cc(-c3cccc(Cl)c3)nc2-c2ccccc2N1          3.59 µM
10  Cn1nnnc1[N-]Cc1ccccc1.[Au+].c1ccc([PH+](c2ccccc2)c2ccccc2)cc1          13.1 µM
11  Cn1cc(NC(=O)c2cc(NC(=O)CCCCCC(=O)Nc3cc(C(=O)Nc4cc(C(=O)NCCC(=N)N)n(C)c4)n(C)c3)cn2C)cc1C(=O)NCCC(=N)N         > 100 µM
12       COc1ccc(CN=CN/C(C#N)=C(\N)C#N)cc1OC         > 100 µM
13     Cc1nc2c(Br)cc(Br)cc2c(=O)n1-c1ccccc1N         > 100 µM
14  Cc1cc(O)cc(C)c1/C=C/c1cncc(C(=O)N(C)C)c1          > 25 µM
15      NS(=O)(=O)c1ccc(/C=C/c2cccc(O)c2)cc1         > 100 µM
16  NC1CCC(c2cc3ccccc3s2)(N2CCCCC2)CC1 (stereo not given)          26.8 µM
17  C/C(=N/O)c1cccc(Nc2nc3ccccc3c3[nH]c4ccccc4c23)c1          19.2 µM
18  COc1ccc(/C=[N+](\[O-])[C@H](COCc2ccccc2)c2ccccc2)cc1         > 100 µM
19  CC(C)(C)C([O-])=C1C(=O)c2ccccc2C1=O.CC(C)(C)C([O-])=C1C(=O)c2ccccc2C1=O.CC[O-].CC[O-].[Ti+4]         > 100 µM

----------
# Test system: K-562 leukemia
Possible outcomes: True = active, False = inactive

In [3]: df
Out[3]:
                               input_smiles  category_label
0  CC1(C)C(=O)/C(=C\c2ccco2)C[C@]2(C)[C@H]3CC=C4[C@@H]5C[C@](C)(C(=O)O)CC[C@]5(C)CC[C@@]4(C)[C@]3(C)CC[C@@H]12           False
1  Cc1cc(O)cc(C)c1/C=C/c1cncc(C(=O)N(C)C)c1           False
2  O=C(N/N=C/c1ccc(F)cc1)c1[nH]c2ccc(I)cc2c1-c1ccccc1            True
3  Cc1ccc(S(=O)(=O)NCCN2c3nc4ccccc4cc3Sc3cc4ccccc4nc32)cc1           False
4  CCC(=O)N1C/C(=C/c2ccc(OC)cc2)C(=O)/C(=C/c2ccc(OC)cc2)C1           False
5       CN(C)CCNc1cccc2sc3ccc(O)cc3c(=O)c12           False

----------
# TGI annotations
# Test system: UACC-257 melanoma
# test-protocol: NCI tumour cell line growth inhibition, 48 h

compound	limit-sign	TGI [µM]
O=Nc1c2cccnc2n2nnc3ccc(Cl)cc3c12	=	23.3
CN(C)Cc1cc(C(=O)O)cc(CN(C)C)c1O	>	100
c1cc(-c2sc(-c3ccncc3)c(-c3ccncc3)c2-c2ccncc2)ccn1	=	31.8
CCN(CC)C(=O)CCCCCCCCC1CO1 (centres undefined)	>	100
O=C1CC(O)c2c(Cl)sc(Cl)c21 (centres undefined)	=	27.7
Cc1ccc(S(=O)(=O)NCCN2c3nc4ccccc4cc3Sc3cc4ccccc4nc32)cc1	>	100
Cc1ccc(C)c(NC(=O)/C(=N\NC(N)=S)C(C#N)c2ccccc2)c1 (centres undefined)	>	100
COc1ccc(N=Cc2ccc(N(CCC#N)CCC#N)cc2)cc1	>	100
O=[N+]([O-])/C=C\c1ccc2c(c1)OCO2	=	3.77
O=C(O)c1nnsc1COCc1ccccc1	>	100
CC[C@H]1C=CCC[C@@]2(C[C@@H]3CC[C@@H]4[C@H](C(=O)OCCCCCCCCCCCCCCCC(=O)N(CCCN)C[C@@H](O)CCN)[C@]5(CCC[C@@H](C)O5)NC(=[N+]34)N2)O1	=	0.573
COc1ccc(CNc2nc3ccccc3nc2-c2cccs2)cc1	>	100
ClCCn1cnc2c(SCc3ccccc3)ncnc21	>	100
C=C1CCCCCCCCCCC1S(=O)c1ccccc1 (centres undefined)	>	100
O=C(N/N=C/c1ccc(F)cc1)c1[nH]c2ccc(I)cc2c1-c1ccccc1	>	96.6
Cc1c2ncccc2c(C)c2c1[nH]c1ccccc12	=	32
O=C(CCCC(=O)N1CC(CCl)c2ccc([N+](=O)[O-])cc21)N1CC(CCl)c2ccc([N+](=O)[O-])cc21 (centres undefined)	>	100
O=C1/C(=C\c2cccs2)Oc2ccccc21	>	100
CC(SC1=CC(=O)c2c(O)ccc(O)c2C1=O)C(=O)O (centres undefined)	>	66
CC1CC[C@]2(C(=O)O)CCC3(C)C(=C2[C@H]1C)C=CC1[C@@]2(C)CC[C@H](O)C(C)(C)C2CC[C@]13C (some centres undefined)	>	100
NNC(=O)c1ccccc1NC(=O)/C(=C/c1ccccc1)NC(=O)c1ccccc1	>	100
CCc1ccc(C2=C(O)C(=O)C(c3ccc(CC)cc3)=C(O)C2=O)cc1	=	11.1
CC(=O)Nc1ccc(Nc2nc(=O)[nH]c(=O)[nH]2)cc1	>	100
CC(Nc1cc(Cl)cc(Cl)c1)c1ccncc1 (centres undefined)	=	58.6
Cn1nnnc1[N-]Cc1ccccc1.[Au+].c1ccc([PH+](c2ccccc2)c2ccccc2)cc1	=	7.78
CN(C)CCNC(=O)c1cccc(CO)c1[N+](=O)[O-]	>	100
Cc1ccc(-c2cc3nc(-c4ccccc4)nc(C(Cl)Cl)n3n2)cc1	=	6.68
N#CC(c1ccccc1)c1cccc2ccccc12 (centres undefined)	=	67.3
Cn1cnc([N+](=O)[O-])c1Sc1ncnc2nc[nH]c12	>	100
c1cc2c(cnc3cscc32)s1	>	100
O=C1Cc2c(-c3ccccc3)cc(-c3cccc(Cl)c3)nc2-c2ccccc2N1	=	24.1
O=S(=O)(O)c1ccc2cc(N=Nc3cc(S(=O)(=O)O)c4cccnc4c3O)ccc2c1	>	100
CC(NCCS(=O)(=O)O)C(=O)O (centres undefined)	>	100
O=C(O)c1[nH]c(C(=O)O)c(CC(F)(F)C(F)(F)C(F)(F)F)c1CC(F)(F)C(F)(F)C(F)(F)F	>	100
COc1ccc2nc3c([N+](=O)[O-])ccc4c3c(c2c1)NCCN4C	=	10.1
CCOC(=O)/C(=C\c1ccc(CO)o1)P(=O)(OCC)OCC	>	100
O=C1NC(N2CCOCC2)=N/C1=C\c1ccccc1O	>	100
OCC1OC(N2C=C(c3nc4ccccc4s3)C3C=CC=CC32)C(O)C1O (centres undefined)	=	22.1
CN(C)CN1C(=O)S/C(=C2\C(=O)N(CN(C)C)c3ccccc32)C1=O	>	100
COc1cc2c(cc1OCCCC(=O)Nc1cc(C(=O)Nc3cc(C(=O)NCCCN(C)C)n(C)n3)n(C)n1)N=CC1CCCN1C2=O (centres undefined)	=	35.2
[Cl][Sn]([c]1ccccc1)[c]1ccccc1	=	23.1
CCOC(=O)/C(C1=CC(=O)C(=O)c2ccccc21)=C(/C)NCc1ccccc1	=	10.9
c1ccc2c(NCCCCCCCCNc3c4ccccc4nc4ccccc34)c3ccccc3nc2c1	=	3.02
COc1cccc2c(=O)c3c(sc12)c(NCCCN)nc1ccccc13	=	4.17
